Experiment: The drug is tested on Z-020 corresponding to rabbit gut metagenome with ENA study accession number: PRJEB37062 and ENA sample accession number: ERS12561819 for biotransformation under anaerobic condition. The drug concentrations were measured over 9 timepoints collected between 0 and 24 hours of incubation by liquid-chromatography-coupled mass spectrometry (LC–MS); note: call rule not given here
Details: 2 µM
quantity: Bacterial Biotransformation

>>> data_value("COc1c2occc2cc2ccc(=O)oc12")
"Compound metabolized"
>>> data_value("COc1ccccc1OCC(O)CN1CCN(CC(=O)Nc2c(C)cccc2C)CC1 (stereo not drawn)")
"Compound NOT metabolized"
>>> data_value("Cc1ccc(-c2nc3ccc(C)cn3c2CC(=O)N(C)C)cc1")
"Compound NOT metabolized"
>>> data_value("CC(C)(C(=O)O)c1ccc(C(O)CCCN2CCC(C(O)(c3ccccc3)c3ccccc3)CC2)cc1 (stereo not drawn) [FEXOFENADINE]")
"Compound NOT metabolized"

Batch lookup, Bacterial Biotransformation per entry.
1. C=CCN1CC[C@]23c4c5ccc(O)c4O[C@H]2C(=O)CC[C@@]3(O)[C@H]1C5
2. CNC(=C[N+](=O)[O-])NCCSCc1ccc(CN(C)C)o1
3. CCN(CC)CCOCCOC(=O)C1(c2ccccc2)CCCC1.O=C(O)CC(O)(CC(=O)O)C(=O)O [CARBETAPENTANE CITRATE]

Result:
["Compound NOT metabolized", "Compound metabolized", "Compound metabolized"]

Problem: Bacterial Biotransformation lookup needed for NC(CO)(CO)CO.O=C(c1ccccc1)c1ccc2n1CCC2C(=O)O (stereo not drawn) , thanks.
Result: Compound metabolized

###

Assay: The drug is tested on Z-016 corresponding to mouse gut metagenome with ENA study accession number: PRJEB37062 and ENA sample accession number: ERS12561815 for biotransformation under anaerobic condition. The drug concentrations were measured over 9 timepoints collected between 0 and 24 hours of incubation by liquid-chromatography-coupled mass spectrometry (LC–MS)
Conditions: 2 µM
quantity: Bacterial Biotransformation

>>> data_value("CCN(CC)CCOCCOC(=O)C1(c2ccccc2)CCCC1.O=C(O)CC(O)(CC(=O)O)C(=O)O [CARBETAPENTANE CITRATE]")
"Compound metabolized"
>>> data_value("CC(C)NCC(O)COc1ccc(COCCOC(C)C)cc1.CC(C)NCC(O)COc1ccc(COCCOC(C)C)cc1.O=C(O)/C=C/C(=O)O (stereo unspecified) [BISOPROLOL FUMARATE]")
"Compound NOT metabolized"
>>> data_value("OCCOCCN1CCN(C2=Nc3ccccc3Sc3ccccc32)CC1")
"Compound NOT metabolized"
>>> data_value("CN1CCC(=C2c3ccccc3CCc3cccnc32)CC1.O=C(O)/C=C\\C(=O)O.O=C(O)/C=C\\C(=O)O [AZATADINE MALEATE]")
"Compound NOT metabolized"
>>> data_value("CCCc1nc2c(C)cc(-c3nc4ccccc4n3C)cc2n1Cc1ccc(-c2ccccc2C(=O)O)cc1")
"Compound metabolized"

Batch lookup, Bacterial Biotransformation per entry.
1. COc1ccc2c3c1O[C@H]1C[C@@H](O)C=C[C@@]31CCN(C)C2
2. CC[C@@H](CO)NC(=O)[C@@H]1C=C2c3cccc4c3c(cn4C)C[C@H]2N(C)C1.O=C(O)/C=C\C(=O)O [METHYSERGIDE MALEATE]
3. C[C@@H]1C[C@H]2[C@@H]3CCC4=CC(=O)C=C[C@]4(C)[C@@]3(F)[C@@H](O)C[C@]2(C)[C@@]1(O)C(=O)CO
4. CCCCCOC(=O)Nc1nc(=O)n([C@@H]2O[C@H](C)[C@@H](O)[C@H]2O)cc1F
5. CCc1nn(CCCN2CCN(c3cccc(Cl)c3)CC2)c(=O)n1CCOc1ccccc1
6. COc1ccccc1OCC(O)CN1CCN(CC(=O)Nc2c(C)cccc2C)CC1 (stereo unspecified)

Result:
1: Compound NOT metabolized; 2: Compound NOT metabolized; 3: Compound NOT metabolized; 4: Compound metabolized; 5: Compound NOT metabolized; 6: Compound NOT metabolized

###

Assay: The drug is tested on WLS-220 corresponding to human gut metagenome with ENA study accession number: PRJEB37062 and ENA sample accession number: ERS12561769 for biotransformation under anaerobic condition. The drug concentrations were measured over 9 timepoints collected between 0 and 24 hours of incubation by liquid-chromatography-coupled mass spectrometry (LC–MS)
Settings: 2 µM
quantity: Bacterial Biotransformation

Would you please look over these solved cases?
>>> data_value("CCOc1ccc(NC(C)=O)cc1")
"Compound NOT metabolized"
>>> data_value("NC(CO)(CO)CO.O=C(c1ccccc1)c1ccc2n1CCC2C(=O)O (stereo not given)")
"Compound metabolized"
>>> data_value("CN/C(=N/CCSCc1nc[nH]c1C)NC#N")
"Compound metabolized"
>>> data_value("CC(CN(C)C)CN1c2ccccc2CCc2ccccc21.O=C(O)/C=C\\C(=O)O (stereo not given) [TRIMIPRAMINE MALEATE]")
"Compound metabolized"
>>> data_value("Cc1ccc(S(=O)(=O)NC(=O)NN2CC3CCCC3C2)cc1 (stereo not given) [GLICLAZIDE]")
"Compound metabolized"

Batch lookup, Bacterial Biotransformation per entry.
1. OC(CCN1CCCCC1)(c1ccccc1)C1CCCCC1 (stereo not given)
2. CNC(=C[N+](=O)[O-])NCCSCc1ccc(CN(C)C)o1
3. Cc1ccccc1N1C(=O)c2cc(S(N)(=O)=O)c(Cl)cc2NC1C (stereo not given)
4. COc1cc2nc(N3CCN(C(=O)c4ccco4)CC3)nc(N)c2cc1OC
5. Nc1c2c(nc3ccccc13)CCCC2

Result:
Compound NOT metabolized
Compound NOT metabolized
Compound metabolized
Compound metabolized
Compound NOT metabolized

###

Test: The drug is tested on WLS-006 corresponding to human gut metagenome with ENA study accession number: PRJEB37062 and ENA sample accession number: ERS12561741 for biotransformation under anaerobic condition. The drug concentrations were measured over 9 timepoints collected between 0 and 24 hours of incubation by liquid-chromatography-coupled mass spectrometry (LC–MS)
Settings: 2 µM
quantity: Bacterial Biotransformation

>>> data_value("c1ccc([C@H]2CN3CCSC3=N2)cc1 [LEVAMISOLE]")
"Compound metabolized"
>>> data_value("C[C@@H]1CC[C@H]2[C@@H](C)C(=O)O[C@@H]3O[C@@]4(C)CC[C@@H]1[C@]32OO4 [ARTEMISININ]")
"Compound metabolized"
>>> data_value("CCOC(=O)[C@H](CCc1ccccc1)N[C@H]1CCc2ccccc2N(CC(=O)O)C1=O [BENAZEPRIL]")
"Compound metabolized"
>>> data_value("O=P(O)(O)O.c1ccc(CN(CC2=NCCN2)c2ccccc2)cc1 [ANTAZOLINE PHOSPHATE]")
"Compound metabolized"
>>> data_value("CC(=O)CC(c1ccccc1)c1c(O)c2ccccc2oc1=O (configuration not stated) [WARFARIN]")
"Compound metabolized"
>>> data_value("CN1C(=O)CCS(=O)(=O)C1c1ccc(Cl)cc1 (configuration not stated) [CHLORMEZANONE]")
"Compound metabolized"
>>> data_value("CCCCc1nc(Cl)c(CO)n1Cc1ccc(-c2ccccc2-c2nn[nH]n2)cc1 [LOSARTAN]")
"Compound metabolized"
>>> data_value("CC(=O)OCC(=O)[C@@]1(O)[C@@H](C)C[C@H]2[C@@H]3CCC4=CC(=O)C=C[C@]4(C)[C@@]3(F)[C@@H](O)C[C@@]21C [BETAMETHASONE ACETATE]")
"Compound metabolized"
>>> data_value("Br.CN(C)CCCC1(c2ccc(F)cc2)OCc2cc(C#N)ccc21 (configuration not stated) [CITALOPRAM HYDROBROMIDE]")
"Compound metabolized"
>>> data_value("Cc1nc2n(c(=O)c1CCN1CCC(c3noc4cc(F)ccc34)CC1)CCCC2 [RISPERIDONE]")
"Compound metabolized"

Batch lookup, Bacterial Biotransformation per entry.
1. CCC(COC(=O)c1cc(OC)c(OC)c(OC)c1)(c1ccccc1)N(C)C.O=C(O)/C=C\C(=O)O (configuration not stated)
2. CC(C)(C(=O)O)c1ccc(C(O)CCCN2CCC(C(O)(c3ccccc3)c3ccccc3)CC2)cc1 (configuration not stated) [FEXOFENADINE]
3. CCCC1O[C@@H]2C[C@H]3[C@@H]4CCC5=CC(=O)C=C[C@]5(C)[C@H]4[C@@H](O)C[C@]3(C)[C@]2(C(=O)CO)O1 (some centres not stated) [BUDESONIDE]
4. Cc1ccc(-c2nc3ccc(C)cn3c2CC(=O)N(C)C)cc1 [ZOLPIDEM]

Result:
1. Compound NOT metabolized
2. Compound NOT metabolized
3. Compound metabolized
4. Compound NOT metabolized

Batch lookup, Bacterial Biotransformation per entry.
1. OCCOCCN1CCN(C2=Nc3ccccc3Sc3ccccc32)CC1 [QUETIAPINE]
2. CO[C@]12C[C@@H](COC(=O)c3cncc(Br)c3)CN(C)[C@@H]1Cc1cn(C)c3cccc2c13 [NICERGOLINE]
3. COc1ccc2c3c1O[C@H]1C[C@@H](O)C=C[C@@]31CCN(C)C2 [GALANTAMINE]

Result:
["Compound NOT metabolized", "Compound metabolized", "Compound NOT metabolized"]
